- targetSystem: TRAP1 enzyme (Homo sapiens)
- Construct: 150 nM Trap1 enzyme was incubated with various concentrations of the test compound
- assayProcedure: ADP Glo assay of TRAP1 ATPase activity
- Type: biochemical
- protocolConditions: 1 h; compound concentration 50 μM; read-out: ADP-Glo Percent Activation at 50 μM
experimentalReadout: activation at 50 µM

- chemicalStructure: "CCCc1onc(C)c1C(=O)Nc1cnc(OC)c(S(=O)(=O)Nc2c(C)cccc2C)c1"
  targetSystem: "TRAP1 enzyme (Homo sapiens)"
  result: "181 to 352%"

The compound "COc1ncc(NC(=O)c2nc(C)cs2)cc1S(=O)(=O)Nc1c(C)cccc1C" showed activation at 50 µM equal to 181 to 352%

Noted for "COc1ncc(NC(=O)c2cc(C(C)C)on2)cc1S(=O)(=O)Nc1c(C)cccc1C" : its activation at 50 µM reads 181 to 352%

Quick note, activation at 50 µM for "COc1ncc(NC(=O)c2cncn2C)cc1S(=O)(=O)Nc1c(C)cccc1C" landed at 120 to 150%

// sample "COc1ncc(NC(=O)c2ccc(OC3COC3)cc2)cc1S(=O)(=O)Nc1c(C)cccc1C" , its activation at 50 µM was 181 to 352%

Reported activation at 50 µM ( "COc1ncc(NC(=O)c2c3c(nn2C)CCC3)cc1S(=O)(=O)Nc1c(C)cccc1C" ) = 181 to 352%

Input "COc1nc(C(F)(F)F)c(C(=O)Nc2cnc(OC)c(S(=O)(=O)Nc3c(C)cccc3C)c2)s1" . Output activation at 50 µM: 181 to 352%

Item: "COc1ncc(NC(=O)c2cnc(C)s2)cc1S(=O)(=O)Nc1c(C)cccc1C" | activation at 50 µM: 151 to 180%

Measured activation at 50 µM, "COc1ncc(NC(=O)c2cn3c(n2)CCCC3)cc1S(=O)(=O)Nc1c(C)cccc1C" : 151 to 180%

The value of activation at 50 µM measured for the compound "COc1cncc(C(=O)Nc2cnc(OC)c(S(=O)(=O)Nc3c(C)cccc3C)c2)c1" turned out to be 151 to 180%

So, "COc1ncc(NC(=O)c2cn(C)nc2C)cc1S(=O)(=O)Nc1c(C)cccc1C" ? Its activation at 50 µM was 120 to 150%

Measured activation at 50 µM, "COc1ncc(NC(=O)c2ncsc2C)cc1S(=O)(=O)Nc1c(C)cccc1C" : 181 to 352%

Just so you know, measured activation at 50 µM for "COc1ncc(NC(=O)c2cccc(CN3CCOCC3)c2)cc1S(=O)(=O)Nc1c(C)cccc1C" came out at 181 to 352%

* * *

- targetSystem: TRAP1 enzyme (Homo sapiens)
- Construct: 150 nM Trap1 enzyme was incubated with various concentrations of the test compound
- Sequence (Q12931 60-704): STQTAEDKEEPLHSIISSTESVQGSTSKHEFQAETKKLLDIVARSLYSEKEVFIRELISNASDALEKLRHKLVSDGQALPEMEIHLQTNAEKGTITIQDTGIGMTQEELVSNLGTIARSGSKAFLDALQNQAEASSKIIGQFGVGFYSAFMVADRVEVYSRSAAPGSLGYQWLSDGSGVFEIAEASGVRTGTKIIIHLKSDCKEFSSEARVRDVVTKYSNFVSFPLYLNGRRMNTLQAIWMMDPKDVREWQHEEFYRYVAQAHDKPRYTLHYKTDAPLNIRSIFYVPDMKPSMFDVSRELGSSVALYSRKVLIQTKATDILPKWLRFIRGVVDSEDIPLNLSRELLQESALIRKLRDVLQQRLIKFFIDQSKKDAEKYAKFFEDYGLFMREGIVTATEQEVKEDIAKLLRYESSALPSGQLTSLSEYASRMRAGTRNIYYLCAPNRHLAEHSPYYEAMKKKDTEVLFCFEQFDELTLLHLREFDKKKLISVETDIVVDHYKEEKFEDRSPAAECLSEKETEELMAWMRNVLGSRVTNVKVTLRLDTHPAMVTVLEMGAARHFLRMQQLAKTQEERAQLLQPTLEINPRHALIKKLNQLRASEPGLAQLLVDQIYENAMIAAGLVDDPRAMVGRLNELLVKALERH
- assayProcedure: ADP Glo assay of TRAP1 ATPase activity
- Type: biochemical
- protocolConditions: maximal percent activation; read-out: ADP GLO DRC: Mean Emax
List of Emax values.

So for COc1ncc(NC(=O)c2csc(-c3ccccc3)n2)cc1S(=O)(=O)Nc1c(C#N)cccc1C(F)(F)F [compound 2068] , the logged Emax turned out to be 200 to 300%

Summary for this compound, COc1ncc(NC(=O)c2c[nH]c(-c3ccccc3)n2)cc1S(=O)(=O)Nc1c(C)cccc1C [compound 2092] : Emax is 200 to 300%

// Emax value for COc1ncc(NC(=O)c2ncc(-c3ccccc3)o2)cc1S(=O)(=O)Nc1ccc(F)c(F)c1C [compound 2366] : 160 to 199%

* * *

- targetSystem: TRAP1 enzyme (Homo sapiens, UniProt Q12931)
- Construct: 150 nM Trap1 enzyme was incubated with various concentrations of the test compound
- Sequence (Q12931 60-704): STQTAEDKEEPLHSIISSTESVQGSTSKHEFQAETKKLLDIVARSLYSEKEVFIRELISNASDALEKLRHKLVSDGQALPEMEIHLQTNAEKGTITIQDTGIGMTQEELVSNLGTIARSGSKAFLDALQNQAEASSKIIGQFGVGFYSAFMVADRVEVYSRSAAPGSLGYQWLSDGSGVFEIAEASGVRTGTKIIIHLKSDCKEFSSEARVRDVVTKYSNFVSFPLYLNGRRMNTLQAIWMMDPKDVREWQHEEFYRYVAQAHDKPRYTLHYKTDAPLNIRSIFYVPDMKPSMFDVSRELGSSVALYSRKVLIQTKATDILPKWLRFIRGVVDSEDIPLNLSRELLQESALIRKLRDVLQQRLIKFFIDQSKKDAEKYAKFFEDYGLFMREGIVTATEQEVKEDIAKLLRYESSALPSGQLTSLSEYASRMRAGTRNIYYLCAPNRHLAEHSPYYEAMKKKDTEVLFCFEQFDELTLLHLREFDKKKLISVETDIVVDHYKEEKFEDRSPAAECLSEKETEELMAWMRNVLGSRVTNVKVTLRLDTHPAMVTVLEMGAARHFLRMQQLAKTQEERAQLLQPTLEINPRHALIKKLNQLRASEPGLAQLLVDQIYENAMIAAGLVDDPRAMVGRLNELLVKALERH
- assayProcedure: ADP Glo assay of TRAP1 ATPase activity
- Type: biochemical
- protocolConditions: 1 h; compound concentration 50 μM; read-out: ADP-Glo Percent Activation at 50 μM
Measured activation at 50 µM accompanies every entry in the list below.

Examples with answers:
- compound: "COc1ncc(NC(=O)c2nnsc2C(C)C)cc1S(=O)(=O)Nc1c(C)cccc1C [compound 2734]"
  activation at 50 µM: "181 to 352%"
- compound: "COc1ncc(NC(=O)c2cc3[nH]c(=O)[nH]c(=O)n3c2)cc1S(=O)(=O)Nc1c(C)cccc1C [compound 2732]"
  activation at 50 µM: "151 to 180%"
- compound: "COc1ncc(NC(=O)c2ncn(C)c2C(F)(F)F)cc1S(=O)(=O)Nc1c(C)cccc1C [compound 2672]"
  activation at 50 µM: "120 to 150%"
- compound: "COc1ncc(NC(=O)c2cc(OC)n(C)n2)cc1S(=O)(=O)Nc1c(C)cccc1C [compound 2747]"
  activation at 50 µM: "151 to 180%"

Kindly note the recorded activation at 50 µM for COc1ncc(NC(=O)c2ccc3ncnn3c2)cc1S(=O)(=O)Nc1c(C)cccc1C [compound 2537] , which is 120 to 150%

The compound COc1ncc(NC(=O)c2cccc(N3CCOCC3)n2)cc1S(=O)(=O)Nc1c(C)cccc1C [compound 2584] showed activation at 50 µM equal to 181 to 352%

Summary for this compound, COc1ncc(NC(=O)c2ncn(C)c2C)cc1S(=O)(=O)Nc1c(C)cccc1C [compound 2571] : activation at 50 µM is 151 to 180%

Lab book: activation at 50 µM of COc1ncc(NC(=O)c2ccc3c(c2)OCCN3C)cc1S(=O)(=O)Nc1c(C)cccc1C [compound 2576] noted as 181 to 352%

* * *

- targetSystem: TRAP1 enzyme (Homo sapiens)
- Construct: 150 nM Trap1 enzyme was incubated with various concentrations of the test compound
- Sequence (Q12931 60-704): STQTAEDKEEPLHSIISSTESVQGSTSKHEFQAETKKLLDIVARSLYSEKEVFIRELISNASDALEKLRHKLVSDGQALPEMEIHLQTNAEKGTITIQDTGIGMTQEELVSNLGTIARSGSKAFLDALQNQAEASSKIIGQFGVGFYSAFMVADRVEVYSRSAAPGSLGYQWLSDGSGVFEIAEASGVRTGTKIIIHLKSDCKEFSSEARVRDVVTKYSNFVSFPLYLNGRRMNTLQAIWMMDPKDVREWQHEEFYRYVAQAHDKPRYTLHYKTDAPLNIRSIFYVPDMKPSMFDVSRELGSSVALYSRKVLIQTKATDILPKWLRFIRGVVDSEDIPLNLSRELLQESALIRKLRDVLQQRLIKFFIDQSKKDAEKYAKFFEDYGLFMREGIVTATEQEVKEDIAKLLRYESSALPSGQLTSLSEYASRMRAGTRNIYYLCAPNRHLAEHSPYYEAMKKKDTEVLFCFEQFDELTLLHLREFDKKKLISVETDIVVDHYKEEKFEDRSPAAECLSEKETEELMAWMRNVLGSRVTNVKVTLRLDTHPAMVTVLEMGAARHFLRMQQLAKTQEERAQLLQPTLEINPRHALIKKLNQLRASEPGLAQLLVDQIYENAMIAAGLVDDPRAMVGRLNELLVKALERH
- assayProcedure: ADP Glo assay of TRAP1 ATPase activity
- Format: biochemical
- protocolConditions: maximal percent activation; read-out: ADP GLO DRC: Mean Emax
Items are presented alongside their recorded Emax.

- compound: "CCCC(C)c1cc(NS(=O)(=O)c2cc(NC(=O)c3ncc(-c4ccccc4)o3)cnc2OC)on1 (stereo not shown) [compound 1648]"
  targetSystem: "TRAP1 enzyme (Homo sapiens)"
  Emax: "119 to 159%"
- compound: "COc1ncc(NC(=O)c2ccnc(Br)c2)cc1S(=O)(=O)Nc1c(C)cccc1C [compound 1935]"
  targetSystem: "TRAP1 enzyme (Homo sapiens)"
  Emax: "200 to 300%"
- compound: "COc1ncc(NC(=O)c2ncc(-c3ccccc3)o2)cc1S(=O)(=O)Nc1nc(C(C)(C)C)ns1 [compound 2396]"
  targetSystem: "TRAP1 enzyme (Homo sapiens)"
  Emax: "160 to 199%"

Form: compound = COc1ncc(NC(=O)c2ncccc2C(=O)c2ccccc2)cc1S(=O)(=O)Nc1ccc(Cl)cc1 [compound 1195] ; Emax = 160 to 199%
